Assay: protein stability index of a GFP-peptide fusion (GPS, HEK-293T) (PSI 1-6); higher = more stable;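 also: 24-mer peptide tiles fused after GFP, lentivirally expressed, FACS-sorted into six equal bins by GFP/DsRed ratio, decoded by Illumina sequencing, PSI is the read-weighted mean bin number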
Details: treatment: MLN4924 1 uM, 8 h; c terminus: a fixed tail appended
Outcome Measure: protein stability index
Simply state the number, no unit and no words.

# sequence ASVTIQARAEQEEEFISNTLFKKI [CCDC6] ; its protein stability index = 3.81

Recorded result, YPHTRIQSLVSILRTTVHHAFPVV [CLCN6] , protein stability index: 2.14

The sequence listed as APHTPPLPRRPRKGSSELGFPRVA [RNF208] has a reported protein stability index of 4.06

Per the record, TERLSHQITSRVVSAATQLRHFFL [RTN2] has protein stability index of 4.08

// field: protein stability index; key: EFHQRRSEIIQITTGSKELDKLLQ [RAD51] ; value = 3.03

protein stability index reported for this sequence EMMRFIYTGRAPNLDKMADNLLAA [SPOPL] : 2.01

So for LLFACSPPPASQPVVKALFGASAA [CDC25A] , the logged protein stability index turned out to be 2.35

Measured protein stability index of LVGDRDVGKSEILESLQDGAAESP [RAB40A] : 5.48

# protein stability index of PVMDVWARKQDMNTKRAIHTLAVM [KLHL14] = 2.33

Record SHKGAEELALALKGNTTLQQLDLR [LRRC45] . Reported protein stability index: 4.17

Measured protein stability index, ELESIRQDRDALHMEGLIVRERIL [FEM1B] : 3.52

// YLCKRVPHTVLDRQLLCLIDYYES [CEP70] : protein stability index value = 2.21

Form field protein stability index, entry YKNIKRPPGDIMFLLVQRFGELMR [USP39] : 2.14

// recorded protein stability index for TFLPDNFSPAKPKPSKELKPLLGS [MYORG] : 3.69

protein stability index reading for SKGMSIFLDILRRADKNDDGKLSF [NECAB1] : 2.33

// protein stability index value for DGHIDINEFLEAFRLVEKSCPEGD [PPEF2] : 4.71

The sequence listed as AFDFDYGNCKYKVDCACLKENPEC [KMT2E] has a reported protein stability index of 3.54

So, TNTLTRIAENGVSERDSEAAKQNH [EHMT1] ? Its protein stability index was 5.26

Field protein stability index (entry LSDSGAFRRSLHDPDGLVATYISE [APMAP] ) reads 4.02

Every entry's value here was drawn from the supplement of paper PMC10567573.
